The reported measurements were obtained from PubChem BioAssay (NCATS).

- PROTOCOL: Primary qHTS to identify inhibitors of SARS-CoV-2 cell entry (AID 1645846); note: nearly all actives have a fitted effect of over 45% in size
- EXPERIMENTAL_CONTEXT: SARS-CoV-2 pseudovirus cell entry assay, luminescence; at 57.1 µM (top of the series) unless noted
Records with an inconclusive call do not appear.
MEASURED_QUANTITY: activity change, negative = inhibition (%)

1. CC(=O)CC/C=C(\C)CC/C=C(\C)CC/C=C(\C)CCC=C(C)C : -24.7
2. Cc1ccc(Cl)c(Nc2ccccc2C(=O)O)c1Cl : -1.76
3. Cc1c(N(C)CS(=O)(=O)O)c(=O)n(-c2ccccc2)n1C : 1.77
4. CN(C)CCOC(=O)C(c1ccccc1)C1(O)CCCC1 (stereo not given) : 1
5. CCCC(=O)O[C@]1(C(=O)CO)CC[C@H]2[C@@H]3CCC4=CC(=O)CC[C@]4(C)[C@H]3[C@@H](O)C[C@@]21C : -10
6. O=C1O[C@H](CO)[C@@H](O)[C@H](O)[C@H]1O : -15.4
7. O=C1CC[C@H](C(=O)N2CCCCC2)N1 : 2.86
8. O=C(OCC1(COC(=O)c2cccnc2)CCCC(COC(=O)c2cccnc2)(COC(=O)c2cccnc2)C1O)c1cccnc1 : -30.1
9. CCn1cc(C(=O)O)c(=O)c2cnc(N3CCNCC3)nc21 : 0.978
10. CCC[C@@H]1C[C@@H](C(=O)N[C@@H]([C@H]2O[C@H](SC)[C@H](O)[C@@H](O)[C@H]2O)[C@H](C)Cl)N(C)C1 : -7.46
11. CC(CCc1ccccc1)NCC(O)c1ccc(O)c(C(N)=O)c1 (stereo not given) : -28.2
12. Cc1ncsc1CCCl : -22.5
13. COC(=O)C1=C(C)NC(C)=C(C(=O)OCCc2ccc(N3CCN(C(c4ccccc4)c4ccccc4)CC3)cc2)C1c1cccc([N+](=O)[O-])c1 (stereo not given) : -16.7
14. CC1COc2c(N3CCN(C)CC3)c(F)cc3c(=O)c(C(=O)O)cn1c23 (stereo not given) : -0.258
15. CC(=O)O[C@@H]1C(=O)O[C@@H]2[C@H]1OC(=O)[C@@H]2OC(C)=O : -38.2
16. OCCOCCN1CCN(C2=Nc3ccccc3Sc3ccccc32)CC1 : -1.17
17. CCN1CC(CCN2CCOCC2)C(c2ccccc2)(c2ccccc2)C1=O (stereo not given) : -22.6

----------
- Test system: HeLa
- PROTOCOL: Primary qHTS to identify gynecologic anti-cancer compounds using libraries of approved drugs and bioactive compounds (AID 1345084); note: % is set by controls: 0 for no effect and ±100 for the full control effect; nearly all actives have a fitted effect of over 55% in size
- EXPERIMENTAL_CONTEXT: Gynecologic cancer cell panel viability, ATPlite luminescence, 48 h; series mostly up to 57.5 µM
Inconclusive results are not listed. Active and inactive are the calls of the source. Calls follow the shape of the dose curve; as a rule, active = well fitted cell-killing curve with a large enough effect; inconclusive = small, poorly fitted or top-dose-only effect, or effect the other way; inactive = flat fitted curve, though single readings scatter.
MEASURED_QUANTITY: outcome

1) CC(C)NC(C)C : inactive
2) CNC(C)(C)Cc1ccccc1 : inactive
3) CC1(C)C(C=C(Cl)Cl)C1C(=O)OC(C#N)c1cccc(Oc2ccccc2)c1 (stereo not drawn) : inactive
4) COC(=O)[C@@H](N)CCCN/C(N)=N/[N+](=O)[O-] : inactive
5) CN1CC[C@]23c4c5ccc(O)c4O[C@H]2[C@@H](O)CC[C@H]3[C@H]1C5 : inactive
6) O=c1oc2ccccc2c(O)c1Cc1c(O)c2ccccc2oc1=O : inactive
7) C#CC(O)(C=CCl)CC (stereo not drawn) : inactive
8) c1ccc(CN2CCNCC2)cc1 : inactive
9) CCN(CC)CCc1c[nH]c2ccccc12 : inactive
10) CC(C)c1cccc(C(C)C)c1O : inactive
11) O=P1(N(CCCl)CCCl)NCCCO1 (stereo not drawn) : inactive
12) CCCCC/C=C\C/C=C\C/C=C\C/C=C\CCCC(=O)NCC(=O)O : inactive
13) CN1C(=O)NC(=O)C(C)(C2=CCCCC2)C1=O (stereo not drawn) : inactive
